target.system: Bem1-1, P29366
Sequence (P29366 55-141): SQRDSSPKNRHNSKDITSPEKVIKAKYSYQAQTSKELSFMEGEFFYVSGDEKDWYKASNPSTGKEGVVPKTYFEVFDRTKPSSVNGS
assay.method.text: SPOT array
setup.conditions: median of control spots 4282
measurement.label: SPOT intensity
One number for each entry.

Check out these entries, answers already filled in.
binder=GPPPPLPPPLFPSSS measurement=0
binder=HHNRRKPLEVYFKAT measurement=43
binder=NPLPKEPRLPKRKVA measurement=0
binder=RRRIAYPFYPFKKLG measurement=1
binder=RPVPPPPPMRTTTEG measurement=3
binder=LASNSPPVYPKRIRH measurement=0

For the 6 binders below, give their SPOT intensity values.
1. HGKRRAPLLLAKLDV
2. KTRLRPAFIQQLWSS
3. STPQTMRQAPKRPDA
4. APKHAPPPVPNETDN
5. DKKTKPTPPPKPSHL
6. NAGIRPKFILALNDE

[0, 1, 0, 0, 0, 0]
